# assay method text: Tmax in mouse at 2 mg/kg, iv or 5 mg/kg, po
# Assay type: ADME, organism-based
# measurement setup: in vivo
reported property: Tmax (min)
Just the number in min, nothing appended.

// sample "NS(=O)(=O)c1cncc(-c2nc(NCc3ccccn3)c3c(-c4ccccc4)cccc3n2)c1" , its Tmax was 30

----------
# target under test: UniProt:Q12809
# Sequence (Q12809 whole entry): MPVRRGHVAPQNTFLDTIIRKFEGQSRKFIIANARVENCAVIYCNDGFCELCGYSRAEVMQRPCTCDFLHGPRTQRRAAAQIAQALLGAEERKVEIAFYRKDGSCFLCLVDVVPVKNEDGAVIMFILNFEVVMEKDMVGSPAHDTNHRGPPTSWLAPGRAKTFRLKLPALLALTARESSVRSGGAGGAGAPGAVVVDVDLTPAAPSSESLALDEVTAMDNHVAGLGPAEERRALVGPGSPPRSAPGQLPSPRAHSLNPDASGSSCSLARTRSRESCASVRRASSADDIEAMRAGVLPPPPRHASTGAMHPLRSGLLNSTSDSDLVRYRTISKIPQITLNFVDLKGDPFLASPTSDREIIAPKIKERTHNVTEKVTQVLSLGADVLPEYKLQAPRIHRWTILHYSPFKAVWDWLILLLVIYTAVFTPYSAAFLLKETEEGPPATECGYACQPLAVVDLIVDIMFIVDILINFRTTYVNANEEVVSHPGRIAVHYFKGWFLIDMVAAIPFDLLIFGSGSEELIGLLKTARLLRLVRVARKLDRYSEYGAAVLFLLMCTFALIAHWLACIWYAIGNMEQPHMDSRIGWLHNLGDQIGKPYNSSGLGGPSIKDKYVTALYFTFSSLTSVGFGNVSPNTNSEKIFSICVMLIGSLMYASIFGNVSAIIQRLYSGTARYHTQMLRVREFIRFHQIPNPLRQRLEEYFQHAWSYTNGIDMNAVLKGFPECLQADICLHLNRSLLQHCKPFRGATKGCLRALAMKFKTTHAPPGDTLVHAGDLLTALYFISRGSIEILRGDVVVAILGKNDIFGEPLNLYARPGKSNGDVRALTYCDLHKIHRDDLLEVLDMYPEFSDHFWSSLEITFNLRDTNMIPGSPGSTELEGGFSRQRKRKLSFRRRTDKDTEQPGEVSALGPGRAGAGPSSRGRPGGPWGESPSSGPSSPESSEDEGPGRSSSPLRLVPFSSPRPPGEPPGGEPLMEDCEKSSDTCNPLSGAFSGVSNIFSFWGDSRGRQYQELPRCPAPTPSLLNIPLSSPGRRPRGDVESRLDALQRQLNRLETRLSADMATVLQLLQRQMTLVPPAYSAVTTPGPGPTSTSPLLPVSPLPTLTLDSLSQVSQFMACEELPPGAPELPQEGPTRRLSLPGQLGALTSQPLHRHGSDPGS
# assay method text: Inhibition of human ERG expressed in HEK293 cells by patch clamp method
# Type: cell-based
pIC50: −log10 of the molar value.
# cutoff 6 applies to pIC50; >= gives class 1, < gives class 0

Nc1ncc(-c2nc(NCc3ccccn3)c3c(-c4ccccc4)cccc3n2)cn1; class 0

*Q* # check: pIC50 of "O=c1ccc(-c2nc(NCc3ccccn3)c3c(-c4ccccc4)cccc3n2)c[nH]1" is greater than or equal to 6
*A* class 1

*Q* # check: pIC50 of "CC(=O)Nc1cncc(-c2nc(NCc3ccccn3)c3c(-c4ccccc4)cccc3n2)c1" is greater than or equal to 6
*A* class 0

*Q* # check: pIC50 of "O=C(NCC(F)(F)F)c1ccc(-c2cccc3nc(-c4cncnc4)nc(NCc4ccccn4)c23)cc1" is greater than or equal to 6
*A* class 0

*Q* # check: pIC50 of "NC(=O)c1ccc(-c2nc(NCc3ccccn3)c3c(-c4ccccc4)cccc3n2)cn1" is greater than or equal to 6
*A* class 0
